Target: T1, human CD48 (on primary human peripheral blood mononuclear cells) (human, UniProt P09326 27-220)
T1 sequence: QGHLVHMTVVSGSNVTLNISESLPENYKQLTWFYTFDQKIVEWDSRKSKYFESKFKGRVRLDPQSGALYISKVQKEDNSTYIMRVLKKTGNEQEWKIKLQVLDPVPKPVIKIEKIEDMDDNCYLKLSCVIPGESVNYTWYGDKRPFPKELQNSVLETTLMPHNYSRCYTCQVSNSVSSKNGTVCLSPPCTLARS
Assay: cell-based or functional assay
measurement.kind: Inhibition of IFN-gamma Release IC50; Donor 6 (Molar)
Write the answer as a number in Molar, unit excluded.

# annotated cases, reported Inhibition of IFN-gamma Release IC50; Donor 6 shown
• H2M1707N (antibody, V domains shown, Human variable domains, mouse IgG2 Fc (H2M)) VH: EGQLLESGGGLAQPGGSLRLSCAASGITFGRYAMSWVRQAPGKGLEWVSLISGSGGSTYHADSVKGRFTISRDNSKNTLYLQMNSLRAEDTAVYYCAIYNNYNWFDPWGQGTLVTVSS VL: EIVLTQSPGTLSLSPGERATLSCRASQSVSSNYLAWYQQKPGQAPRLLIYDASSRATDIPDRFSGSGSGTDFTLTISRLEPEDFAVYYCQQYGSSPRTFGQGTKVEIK = 9.3e-12
• H4H1774P (antibody, human IgG4, V domains shown, Human IgG4 Fc (H4H)) VH: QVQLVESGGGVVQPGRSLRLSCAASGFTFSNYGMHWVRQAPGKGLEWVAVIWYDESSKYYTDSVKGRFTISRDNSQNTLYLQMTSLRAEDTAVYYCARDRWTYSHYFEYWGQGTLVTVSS VL: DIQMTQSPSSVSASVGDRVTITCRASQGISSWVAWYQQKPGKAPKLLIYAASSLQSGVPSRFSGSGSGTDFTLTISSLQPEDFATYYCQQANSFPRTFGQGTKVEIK = 2.5e-11
• H2M1710N (antibody, mouse IgG2, V domains shown, Human variable domains, mouse IgG2 Fc (H2M)) VH: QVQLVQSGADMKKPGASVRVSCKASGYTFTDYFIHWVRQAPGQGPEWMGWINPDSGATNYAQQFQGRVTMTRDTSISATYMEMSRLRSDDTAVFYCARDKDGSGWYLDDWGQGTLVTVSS VL: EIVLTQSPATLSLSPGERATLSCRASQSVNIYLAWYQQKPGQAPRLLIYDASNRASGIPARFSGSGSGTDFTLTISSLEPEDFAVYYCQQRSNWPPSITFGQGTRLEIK = 5e-11

API: the following record is the query input.
Input H4H1772P (antibody, human IgG4, V domains shown, Human IgG4 Fc (H4H)) VH: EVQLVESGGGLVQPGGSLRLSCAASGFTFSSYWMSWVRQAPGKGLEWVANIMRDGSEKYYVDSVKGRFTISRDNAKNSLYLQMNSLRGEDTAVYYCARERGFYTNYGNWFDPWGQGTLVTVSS VL: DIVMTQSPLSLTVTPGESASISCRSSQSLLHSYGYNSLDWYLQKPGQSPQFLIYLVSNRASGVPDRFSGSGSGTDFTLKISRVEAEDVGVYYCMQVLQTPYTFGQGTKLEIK , output reported Inhibition of IFN-gamma Release IC50; Donor 6.
2e-12
